- measured-on: CDK1/cyclin B
- run-description: CDK1/cyclin B kinase assay (histone H1, 15 μM ATP)
- experimental-context: 15 μM ATP, Table 1
pIC50: −log10 of the molar value.
value-type: pIC50

// solved cases for pIC50 follow
> print(dat)
                                   compound    measured.on  value.type  measured
1  COc1ccc(-c2cc3nccnc3[nH]2)cc1 [14 (RP11)]  CDK1/cyclin B       pIC50      5.70
2  c1ccc(-c2cc3nccnc3[nH]2)cc1 [5 (RP7), 6-Phenyl[5H]pyrrolo[2,3-b]pyrazine]  CDK1/cyclin B       pIC50      5.30
3  Fc1ccc(-c2cc3nccnc3[nH]2)cc1 [18 (RP76)]  CDK1/cyclin B       pIC50      5.64

a = CCCCCCCc1c(-c2ccc(OC)cc2)[nH]c2nccnc12 [41 (RP111)]
b = Br.Oc1cccc(-c2cc3nccnc3[nH]2)c1 [13 (RP134), hydrobromide]
Task: Given a and given b , which shows the smaller recorded pIC50? Label of pick, please.
Result: a
(a: 5.15, b: 5.60)
